Origin of values: the kinase profiling compilation of Christmann-Franck et al. (2016)

For each record, write down the corresponding residual activity.
- testTarget: PRKG2 (human)
- method: radiometric filter-binding kinase assay, Kinase HotSpot
- measurementParameters: compound 0.5 µM; ATP 10 µM
One number for each entry, in %.

Give me residual activity for each of these compounds, listed below.
1. CNC(=O)c1cc(Oc2ccc(NC(=O)Nc3ccc(Cl)c(C(F)(F)F)c3)cc2)ccn1
2. CO[C@H]1CC2CC[C@@H](C)[C@@](O)(O2)C(=O)C(=O)N2CCCC[C@H]2C(=O)OC([C@H](C)C[C@@H]2CC[C@@H](O)[C@H](OC)C2)CC(=O)[C@H](C)/C=C(\C)[C@@H](O)[C@@H](OC)C(=O)[C@H](C)C[C@H](C)/C=C/C=C/C=C/1C (stereo partly specified)
3. CC[n+]1c(/C=C/N(C)c2ccccc2)n(-c2ccccc2)c2ccc(-c3nc4ccccc4s3)cc21
4. Nc1ccc2ncnc(NCCc3ccc(Oc4ccccc4)cc3)c2c1

[90.9, 91.9, 92.4, 105]

Please state, for each entry, its recorded residual activity.
1. CCN(CC)CCNC(=O)c1c(C)[nH]c(/C=C2\C(=O)Nc3ccc(F)cc32)c1C
2. Cc1ccc(S(=O)(=O)/C=C/C#N)cc1

1: 96.1; 2: 102

----------
- testTarget: GSG2 (human)
- method: radiometric filter-binding kinase assay, Kinase HotSpot
- measurementParameters: compound 0.5 µM; ATP 10 µM
measurementKind: residual activity

Check out these entries, answers already filled in.
compound	testTarget	result
COc1ccc2c(c[n+](C)c3c4cc5c(cc4ccc23)OCO5)c1OC	GSG2 (human)	98.8%
Cc1ccc(S(=O)(=O)/C=C/C#N)cc1	GSG2 (human)	101%
Cc1[nH]c(/C=C2\C(=O)Nc3ccc(S(=O)(=O)N(C)c4cccc(Cl)c4)cc32)c(C)c1C(=O)N1CCN(C)CC1	GSG2 (human)	102%

Please give residual activity for each item listed below.
1. CC#CC(=O)Nc1cc2c(Nc3ccc(F)c(Cl)c3)ncnc2cn1
2. O=C1NC(=O)C(c2cn(CCCn3ccnc3)c3ccccc23)=C1Nc1ccccc1

1: 101%; 2: 95.8%

# return residual activity for each item in the list
1. O=C(Nc1cccc(Nc2nccc(Nc3cccc(C(F)(F)F)c3)n2)c1)C1CC1
2. O=S(=O)(c1cccc2cnccc12)N1CCCNCC1
3. CCN(CC)C(=O)c1ccc(Nc2nc(OCC3CCCCC3)c3nc[nH]c3n2)cc1
4. CCN(CC)CCNC(=O)c1c(C)[nH]c(/C=C2\C(=O)Nc3ccc(Cl)cc32)c1C
5. COc1cc2ncnc(Nc3cccc(Cl)c3)c2cc1OC
6. CC[n+]1c(/C=C/N(C)c2ccccc2)n(-c2ccccc2)c2ccc(-c3nc4ccccc4s3)cc21

["101%", "86.6%", "94.1%", "82.9%", "84.8%", "110%"]

----------
- testTarget: CSNK1D (human)
- method: radiometric filter-binding kinase assay, Kinase HotSpot
- measurementParameters: compound 0.5 µM; ATP 10 µM
Hi there, I'd appreciate the recorded residual activity for every entry that follows.
Answers are plain numbers, in %.

Past entries and their recorded results:
structureSmilesString	units	numericValue
O=c1cc(N2CCOCC2)oc2c1ccc1ccccc12	%	97.9
O=C1Nc2ccc(Cl)cc2/C1=C/c1cc(Cl)c(O)c(Cl)c1	%	89.6
Oc1cccc(-c2nc(N3CCOCC3)c3oc4ncccc4c3n2)c1	%	91.3
CC(C)N(CCC(=O)c1ccc2ccccc2c1)Cc1ccccc1	%	97.6
Cc1ccc(Nc2nccc(N(C)c3ccc4c(C)n(C)nc4c3)n2)cc1S(N)(=O)=O	%	95.4

For every record below, what is its residual activity?
1. N#CC(C#N)=C(N)/C(C#N)=C/c1ccc(O)cc1
2. Cc1ccc(S(=O)(=O)/C=C/C#N)cc1
3. Nc1cccc(-c2cc3c(Oc4cccc(O)c4)ncnc3[nH]2)c1

1: 98.7; 2: 103; 3: 96.8

----------
- testTarget: IGF1R (human) (UniProt P08069)
- Sequence (P08069 whole entry, looked up): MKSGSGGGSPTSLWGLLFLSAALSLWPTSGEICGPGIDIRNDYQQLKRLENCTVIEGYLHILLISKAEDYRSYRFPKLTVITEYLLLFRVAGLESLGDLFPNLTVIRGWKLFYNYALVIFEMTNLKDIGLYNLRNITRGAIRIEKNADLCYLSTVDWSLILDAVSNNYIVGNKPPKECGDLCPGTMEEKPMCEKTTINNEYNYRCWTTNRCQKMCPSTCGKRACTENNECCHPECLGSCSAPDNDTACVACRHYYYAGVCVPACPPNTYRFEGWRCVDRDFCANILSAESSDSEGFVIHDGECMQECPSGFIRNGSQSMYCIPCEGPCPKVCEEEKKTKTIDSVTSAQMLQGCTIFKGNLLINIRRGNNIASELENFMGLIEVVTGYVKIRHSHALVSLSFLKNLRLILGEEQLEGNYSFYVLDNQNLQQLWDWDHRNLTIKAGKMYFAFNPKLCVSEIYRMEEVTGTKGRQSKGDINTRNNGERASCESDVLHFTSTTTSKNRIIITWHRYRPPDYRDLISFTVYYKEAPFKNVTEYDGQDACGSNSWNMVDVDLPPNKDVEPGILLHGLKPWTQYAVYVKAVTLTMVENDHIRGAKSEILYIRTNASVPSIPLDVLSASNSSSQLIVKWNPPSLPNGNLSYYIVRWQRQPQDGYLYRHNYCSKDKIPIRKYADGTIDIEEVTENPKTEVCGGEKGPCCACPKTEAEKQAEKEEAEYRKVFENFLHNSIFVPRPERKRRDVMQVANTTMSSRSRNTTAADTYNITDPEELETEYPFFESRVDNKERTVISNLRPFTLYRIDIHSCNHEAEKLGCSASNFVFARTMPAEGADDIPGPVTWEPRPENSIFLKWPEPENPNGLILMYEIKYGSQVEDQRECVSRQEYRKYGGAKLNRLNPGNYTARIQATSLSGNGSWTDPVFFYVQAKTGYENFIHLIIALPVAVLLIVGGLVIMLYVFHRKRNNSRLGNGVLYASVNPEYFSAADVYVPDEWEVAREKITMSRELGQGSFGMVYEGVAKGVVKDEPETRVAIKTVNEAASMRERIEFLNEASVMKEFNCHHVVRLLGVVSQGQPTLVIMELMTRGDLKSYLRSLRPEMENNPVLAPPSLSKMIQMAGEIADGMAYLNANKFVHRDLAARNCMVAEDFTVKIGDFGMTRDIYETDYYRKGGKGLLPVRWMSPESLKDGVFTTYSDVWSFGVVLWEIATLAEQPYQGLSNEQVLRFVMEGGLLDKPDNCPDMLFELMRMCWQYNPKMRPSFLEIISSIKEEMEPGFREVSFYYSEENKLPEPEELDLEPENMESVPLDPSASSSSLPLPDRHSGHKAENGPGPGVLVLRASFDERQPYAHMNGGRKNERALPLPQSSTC
- method: radiometric filter-binding kinase assay, Kinase HotSpot
- measurementParameters: compound 0.5 µM; ATP 10 µM
measurementKind: residual activity

structureSmilesString	measurementKind	result
Oc1cccc(-c2nc(N3CCOCC3)c3oc4ncccc4c3n2)c1	residual activity	97.1%

Look up residual activity for the entries below, preserving their order.
1. COc1cc2ncnc(Nc3cccc(Cl)c3)c2cc1OC
2. CNc1cc2c(Nc3cccc(Br)c3)ncnc2cn1
3. Cc1ccc(NC2=CC(=O)c3sc(C)nc3C2=O)cc1
4. O=S(=O)(c1cccc2cnccc12)N1CCCNCC1
5. CC(=O)c1ccc(N2CCOCC2)cc1O
6. CCOC(=O)c1c(C)[nH]c(/C=C2\C(=O)Nc3ccccc32)c1C
7. Nc1ccc2ncnc(NCCc3ccc(Oc4ccccc4)cc3)c2c1
8. Nc1ncnc2c1c(-c1ccc(Oc3ccccc3)cc1)cn2C1CCCC1

["75.9%", "115%", "92.2%", "112%", "106%", "79.5%", "99.7%", "104%"]

For each of the items listed, what is its residual activity?
1. N#C/C(=C(/N)Sc1ccc(N)cc1)c1ccccc1C(F)(F)F
2. Nc1ncnc2[nH]nc(Nc3ccc(F)cc3)c12
3. CCN(CC)C(=O)c1ccc(Nc2nc(OCC3CCCCC3)c3nc[nH]c3n2)cc1
4. O=C1Nc2ccc(Cl)cc2/C1=C/c1cc(Cl)c(O)c(Cl)c1

["97.4%", "104%", "28.4%", "98.3%"]

Could you tell me residual activity for each of these molecules? They are listed below.
1. O=C1NC(=O)c2c1c1c3ccccc3n3c1c1c2c2ccccc2n1C1CCC3O1
2. N#CC(C#N)=C(N)/C(C#N)=C/c1ccc(O)cc1
3. CNC(=O)c1cc(Oc2ccc(NC(=O)Nc3ccc(Cl)c(C(F)(F)F)c3)cc2)ccn1
4. CCN(CC)CCNC(=O)c1c(C)[nH]c(/C=C2\C(=O)Nc3ccc(F)cc32)c1C

1. 63.8%
2. 90.6%
3. 94.3%
4. 62.6%

----------
- testTarget: ADRBK2 (human)
- method: radiometric filter-binding kinase assay, Kinase HotSpot
- measurementParameters: compound 0.5 µM; ATP 10 µM
measurementKind: residual activity (%)
Numbers only, in %.

Record excerpt, results attached:
structureSmilesString	units	residual activity
CC[n+]1c(/C=C/N(C)c2ccccc2)n(-c2ccccc2)c2ccc(-c3nc4ccccc4s3)cc21	%	97.4
O=S(=O)(c1cccc2cnccc12)N1CCCNCC1	%	100
COc1ccc(COc2ccc(Cc3cnc(N)nc3N)cc2OC)cc1	%	103
Oc1cccc(-c2nc(N3CCOCC3)c3oc4ncccc4c3n2)c1	%	110
CCOC(=O)c1c(C)[nH]c(/C=C2\C(=O)Nc3ccccc32)c1C	%	94.7

Record residual activity for all entries; do not skip any.
1. CCC(=O)Nc1ccc2ncnc(Nc3cccc(Br)c3)c2c1
2. O=c1cc(N2CCOCC2)oc2c1ccc1ccccc12
3. CCN(CC)C(=O)c1ccc(Nc2nc(OCC3CCCCC3)c3nc[nH]c3n2)cc1
4. CNC(=O)c1cc(Oc2ccc(NC(=O)Nc3ccc(Cl)c(C(F)(F)F)c3)cc2)ccn1
5. Nc1cccc(-c2cc3c(Oc4cccc(O)c4)ncnc3[nH]2)c1

1: 99.2; 2: 102; 3: 92.7; 4: 98.4; 5: 101

Look up residual activity for the entries below, preserving their order.
1. CCN(CC)CCNC(=O)c1c(C)[nH]c(/C=C2\C(=O)Nc3ccc(F)cc32)c1C
2. CC#CC(=O)Nc1cc2c(Nc3ccc(F)c(Cl)c3)ncnc2cn1
3. CCCC(=O)Oc1ccc2[nH]c(C(=O)c3cc4ccccc4[nH]3)cc2c1
4. O=C1NC(=O)C(c2cn(CCCn3ccnc3)c3ccccc23)=C1Nc1ccccc1

1. 94.8
2. 103
3. 101
4. 97.9

----------
- testTarget: LIMK1 (human) (UniProt P53667)
- Sequence (P53667 whole entry, looked up): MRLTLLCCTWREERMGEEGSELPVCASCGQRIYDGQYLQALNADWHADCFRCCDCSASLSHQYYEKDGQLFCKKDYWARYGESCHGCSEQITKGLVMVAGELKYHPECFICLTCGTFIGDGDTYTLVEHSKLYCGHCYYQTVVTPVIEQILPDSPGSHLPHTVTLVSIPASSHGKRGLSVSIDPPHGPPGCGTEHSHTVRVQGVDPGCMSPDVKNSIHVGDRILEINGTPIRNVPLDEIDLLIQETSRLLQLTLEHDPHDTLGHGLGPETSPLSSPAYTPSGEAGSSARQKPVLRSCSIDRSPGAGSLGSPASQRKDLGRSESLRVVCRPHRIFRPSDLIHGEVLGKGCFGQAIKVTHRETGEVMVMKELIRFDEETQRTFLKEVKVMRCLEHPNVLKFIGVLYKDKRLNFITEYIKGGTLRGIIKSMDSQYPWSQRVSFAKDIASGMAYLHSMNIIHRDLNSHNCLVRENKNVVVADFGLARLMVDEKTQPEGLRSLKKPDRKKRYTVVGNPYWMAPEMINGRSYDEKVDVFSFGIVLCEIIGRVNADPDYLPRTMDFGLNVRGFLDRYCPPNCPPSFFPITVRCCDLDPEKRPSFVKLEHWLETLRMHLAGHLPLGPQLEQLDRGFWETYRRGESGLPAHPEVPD
- method: radiometric filter-binding kinase assay, Kinase HotSpot
- measurementParameters: compound 0.5 µM; ATP 10 µM
Task for the reader: assign each of the following molecules its reported residual activity.
Give bare numbers, in %.

Example results:
molecule	units	residual activity
CCN(CC)CCNC(=O)c1c(C)[nH]c(/C=C2\C(=O)Nc3ccc(Cl)cc32)c1C	%	98.4
N#CC(C#N)=C(N)/C(C#N)=C/c1ccc(O)cc1	%	89.9
Nc1cccc(-c2cc3c(Oc4cccc(O)c4)ncnc3[nH]2)c1	%	22.1
CNc1cc2c(Nc3cccc(Br)c3)ncnc2cn1	%	95.9
CCCC(=O)Oc1ccc2[nH]c(C(=O)c3cc4ccccc4[nH]3)cc2c1	%	93.9

Hi, could you look up residual activity for each item in my list?
1. COc1cc2ncnc(Nc3cccc(Cl)c3)c2cc1OC
2. CO[C@H]1CC2CC[C@@H](C)[C@@](O)(O2)C(=O)C(=O)N2CCCC[C@H]2C(=O)OC([C@H](C)C[C@@H]2CC[C@@H](O)[C@H](OC)C2)CC(=O)[C@H](C)/C=C(\C)[C@@H](O)[C@@H](OC)C(=O)[C@H](C)C[C@H](C)/C=C/C=C/C=C/1C (stereo partly drawn)
3. Nc1ccc2ncnc(NCCc3ccc(Oc4ccccc4)cc3)c2c1

1. 72.4
2. 89.8
3. 101
